From: paper PMC6155296

# reported inhibition at 100 µg/mL; entries follow
- targetOrSystem: Mushroom tyrosinase (Agaricus bisporus)
- Sequence (C7FF04 2-392): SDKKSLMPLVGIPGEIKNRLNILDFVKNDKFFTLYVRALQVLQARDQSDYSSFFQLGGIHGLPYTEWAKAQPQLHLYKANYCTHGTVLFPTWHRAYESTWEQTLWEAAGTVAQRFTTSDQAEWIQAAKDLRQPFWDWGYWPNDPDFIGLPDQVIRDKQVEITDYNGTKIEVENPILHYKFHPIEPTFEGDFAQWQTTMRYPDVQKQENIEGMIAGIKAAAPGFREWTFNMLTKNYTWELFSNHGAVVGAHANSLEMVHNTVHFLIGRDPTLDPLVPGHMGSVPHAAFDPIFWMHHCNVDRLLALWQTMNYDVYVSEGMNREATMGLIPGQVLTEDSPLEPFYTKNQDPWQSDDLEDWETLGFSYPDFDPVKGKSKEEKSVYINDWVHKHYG
- Sequence (G1K3P4 1-150 partner): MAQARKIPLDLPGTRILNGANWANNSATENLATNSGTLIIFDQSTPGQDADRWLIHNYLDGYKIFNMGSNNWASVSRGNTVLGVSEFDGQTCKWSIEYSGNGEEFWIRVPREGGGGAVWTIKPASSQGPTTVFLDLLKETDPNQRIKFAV
- testDetails: Tyrosinase assay (spectrophotometry, L-tyrosine substrate)
- Assay type: biochemical
Field format: number, assumed %, no unit text.

Check out these entries, answers already filled in.
Query :: # get_value(readout='inhibition at 100 µg/mL', item= O=c1c(O)c(-c2ccc(O)cc2)oc2cc(O)cc(O)c12 )
Result :: 30

Query :: Quick one: inhibition at 100 µg/mL for OC[C@H]1O[C@@H](Oc2ccc(O)cc2)[C@H](O)[C@@H](O)[C@@H]1O [Arbutin, arbutin, reference compound] ?
Result :: 86

Now, please, on to the next molecule.
Query :: Quick one: inhibition at 100 µg/mL of O=C(O)c1ccc(O)cc1 [p-Hydroxybenzoic acid (2), p-hydroxybenzoic acid] ?
Result :: 8.3
